assay-overview: Anticancer human tumor 997537-175-T-J1-PDC patient-derived colon adenocarcinoma cell line growth inhibition [POLQ]
condition-notes: 997537-175-T-J1-PDC complex spheroid viability, combination with POLQ inhibitors; second compound 1 µM; first compound 0.01 µM; active compounds read low
parameter-measured: viability, T/C (%)
Write the value in % as a bare number.

In the examples that follow, each entry is paired with its recorded viability, T/C.
* C=CCn1c(=O)c2cnc(Nc3ccc(N4CCN(C)CC4)cc3)nc2n1-c1cccc(C(C)(C)O)n1 + Nc1ccc(C#CCN(C(=O)Cc2ncc(C(F)(F)F)cc2C(F)(F)F)c2ccc(F)cc2)nn1 | 104
* CCc1c2c(nc3ccc(O)cc13)-c1cc3c(c(=O)n1C2)COC(=O)[C@]3(O)CC + COC1C(OC(N)=O)C(O)C(Oc2ccc3c(O)c(NC(=O)c4ccc(O)c(CC=C(C)C)c4)c(=O)oc3c2C)OC1(C)C | 60.1
* CC[C@@]1(O)C(=O)OCc2c1cc1n(c2=O)Cc2cc3c(CN(C)C)c(O)ccc3nc2-1 + COC1C(OC(N)=O)C(O)C(Oc2ccc3c(O)c(NC(=O)c4ccc(O)c(CC=C(C)C)c4)c(=O)oc3c2C)OC1(C)C | 96.3
* Cn1ncnc1[C@H]1c2n[nH]c(=O)c3cc(F)cc(c23)N[C@@H]1c1ccc(F)cc1 + Cc1cccc(N(C)C(=O)C2C(O)CCN2c2nc(C)cc(C(F)(F)F)c2C#N)c1 | 100

Ask: Return viability, T/C (reported value) for this compound: CC[C@@]1(O)C(=O)OCc2c1cc1n(c2=O)Cc2cc3c(CN(C)C)c(O)ccc3nc2-1 + Cc1cccc(N(C)C(=O)C2C(O)CCN2c2nc(C)cc(C(F)(F)F)c2C#N)c1
Result: 111

Ask: Return viability, T/C (reported value) for this compound: COc1cccc(OCCCN)c1-c1cc(Nc2cnc(C#N)cn2)n[nH]1 + Cc1cccc(N(C)C(=O)C2C(O)CCN2c2nc(C)cc(C(F)(F)F)c2C#N)c1
Result: 79.1

* * *

assay-overview: Anticancer human tumor 997537-175-T-J1-PDC cell line growth inhibition [POLQ];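 further: luminescence signal used as a surrogate for viable cells; spheroids exposed to drugs for seven days before readout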
condition-notes: 997537-175-T-J1-PDC complex spheroid viability, combination with POLQ inhibitors; second compound 0.316 µM; first compound 0.316 µM; active compounds read low
parameter-measured: viability, T/C (%)
Write the value in % as a bare number.

In the examples that follow, each entry is paired with its recorded viability, T/C.
* CC1COCCN1c1cc(C2(S(C)(=N)=O)CC2)nc(-c2ccnc3[nH]ccc23)n1 (stereo not given) + Nc1ccc(C#CCN(C(=O)Cc2ncc(C(F)(F)F)cc2C(F)(F)F)c2ccc(F)cc2)nn1 | 97.5
* CCc1cc2c(N3CCc4c(cc(Cn5ccnc5)cc4-c4cn(C)nc4C(F)(F)F)C3=O)cc(C)nc2c(OC)n1 + Cc1cccc(N(C)C(=O)C2C(O)CCN2c2nc(C)cc(C(F)(F)F)c2C#N)c1 | 82.6
* CCc1cc2c(N3CCc4c(cc(Cn5ccnc5)cc4-c4cn(C)nc4C(F)(F)F)C3=O)cc(C)nc2c(OC)n1 + Nc1ccc(C#CCN(C(=O)Cc2ncc(C(F)(F)F)cc2C(F)(F)F)c2ccc(F)cc2)nn1 | 99.5
* CC1COCCN1c1cc(-c2ccnn2C)c2ccnc(-c3ccn[nH]3)c2n1 (stereo not given) + COC1C(OC(N)=O)C(O)C(Oc2ccc3c(O)c(NC(=O)c4ccc(O)c(CC=C(C)C)c4)c(=O)oc3c2C)OC1(C)C | 49.7

Query molecule follows.
Ask: Return viability, T/C (reported value) for this molecule: CCc1cc2c(N3CCc4c(cc(Cn5ccnc5)cc4-c4cn(C)nc4C(F)(F)F)C3=O)ccnc2c(OC)n1 + COC1C(OC(N)=O)C(O)C(Oc2ccc3c(O)c(NC(=O)c4ccc(O)c(CC=C(C)C)c4)c(=O)oc3c2C)OC1(C)C
Result: 103
